# Tested on: OVCAR-8 ovarian
# method: NCI-60 one-dose screen, 48 h
# condition info: 10 µM unless noted
About 83,000 compounds went through this panel and 20% of them were active in at least one assay; those are over-represented in the sample as a whole. Activity calls are given as the source filed them. Rule for the calls: active = growth percent below 10; inactive = the rest.
Form entry, call: pick from active, inactive

Consider the following illustrative entries.
compound	class
ClCCN(CCCl)c1ccc(OCc2ccccc2)cc1	inactive
COC(=O)[C@@H](C)C[C@H](Cc1ccccc1)NC(=O)c1csc([C@@H](C[C@H](C(C)C)N(C)C(=O)[C@@H](NC(=O)[C@H]2CCCCN2C)C2CCCCC2)OC(C)=O)n1	inactive
CC(=O)OC1CCC2(C)C(CCC3C2CC(=O)C2(C)C3CC(Sc3ccc(N(CCCl)CCCl)cc3)C2C(C)=O)C1 (configuration not stated)	inactive
COC(=O)[C@H](Cc1c[nH]c2ccccc12)NC(=O)[C@@H](OC)[C@@H]1Cc2cc3cc(OC4CC(OC5CC(O)C(O)C(C)O5)C(O)C(C)O4)c(C)c(O)c3c(O)c2C(=O)[C@H]1OC1CC(OC2CC(OC3CC(C)(O)C(O)C(C)O3)C(O)C(C)O2)C(O)C(C)O1 (some centres not stated)	inactive
O=P1(NCCCl)OCCCN1CCCl (configuration not stated)	inactive

Hi team, can someone confirm the assay call for `CC[C@]12C=CCN3CC[C@]4(C(=C(C(=O)OC)C1)Nc1cc(OC)c(OC(C)=O)cc14)[C@@H]32` ? active

Hi team, can someone confirm the assay call for `O=C(CCCC1CCCCC1)OCC(Cl)(Cl)Cl` ? inactive

Hi team, can someone confirm the assay call for CC(=O)OC1C(OC/C2=C/C3[C@@H](C(C)C)CC=C(C)[C@@H]3CC(OC(=O)/C=C/c3cn(C)cn3)[C@]3(C)C=C[C@@]2(O)O3)OCC(O)C1O (some centres not stated) ? inactive

Hi team, can someone confirm the assay call for `Nc1c(F)cc(-c2nc3cc(F)ccc3[se]2)cc1Br` ? inactive

Hi team, can someone confirm the assay call for `CC1=C([Te]c2ccc(O)cc2)C(=O)c2ccccc2C1=O` ? inactive

Hi team, can someone confirm the assay call for CCOC(=O)C(Cc1ccc(N(CCCl)CCCl)cc1)NC(=O)C(CC(C)C)NC(C)=O (configuration not stated) ? inactive

Hi team, can someone confirm the assay call for `Cc1ccc(Nc2nc3c(s2)C2=CC[C@@H]4[C@H](CC[C@]5(C)C(=O)CC[C@@H]45)[C@@]2(C)CC3)cc1` ? inactive

Hi team, can someone confirm the assay call for `COC(=O)C12CC(NC(=O)c3csc([C@@H](C[C@H](C(C)C)N(C)C(=O)[C@@H](NC(=O)[C@H]4CCCCN4C)C4CC4)OC(C)=O)n3)(C1)C2` ? inactive
